target: Human factor Xa (Homo sapiens, UniProt P00742); assay: Xa Assay; format: biochemical; set-up: purchased Enzyme Research Laboratories, South Bend Ind; details: at 30 µM inhibitor
Sequence (P00742 41-179 limits assumed): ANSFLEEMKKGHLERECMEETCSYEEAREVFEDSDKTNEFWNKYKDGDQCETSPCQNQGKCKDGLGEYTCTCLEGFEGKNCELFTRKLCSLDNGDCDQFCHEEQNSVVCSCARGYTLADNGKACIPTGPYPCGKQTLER
Sequence (P00742 235-488 limits assumed): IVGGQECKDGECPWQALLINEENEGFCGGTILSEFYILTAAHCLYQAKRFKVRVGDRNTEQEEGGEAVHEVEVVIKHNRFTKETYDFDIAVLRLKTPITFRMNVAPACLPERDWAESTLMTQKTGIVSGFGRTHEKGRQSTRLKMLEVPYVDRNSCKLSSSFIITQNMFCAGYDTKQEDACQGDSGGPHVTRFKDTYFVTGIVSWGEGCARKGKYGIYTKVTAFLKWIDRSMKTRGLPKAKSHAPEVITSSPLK
Reported endpoint: % Inhibition Factor Xa (30 µM) (% @ 30)

Compound	Quantitative result
Cc1ccccc1-c1c(Cl)nc(NCCc2ccccc2)c(=O)n1CC(=O)NCc1ccc(C(=N)N)cc1	16
N=C(N)c1ccc(CNC(=O)Cn2c(-c3cccc(N)c3)c(Cl)nc(NCCc3ccccc3)c2=O)cc1	26

a = Cc1cccc(-c2c(Cl)nc(NCCc3ccccc3)c(=O)n2CC(=O)NCc2ccc(C(=N)N)cc2)c1
b = N=C(N)c1ccc(CNC(=O)Cn2c(-c3ccccc3)c(Cl)nc(NCCc3ccncc3)c2=O)cc1 [Example 19]
c = Cc1c(N)cccc1-c1cnc(NC(C)C)c(=O)n1CC(=O)NCc1ccc(C(=N)N)cc1
In: Arrange the 3 compounds from largest to smallest % Inhibition Factor Xa (30 µM). Output spec: labels arranged per the requested ranking.
Out: a, b, c
(a: 33 % @ 30, b: 22 % @ 30, c: 10 % @ 30)

Origin of the recorded values: patent US6908919B2
